test system: MS2 coat protein; assay: apparent KD of MS2 coat protein; designed switch direction (-1 OFF switch, 1 ON switch): 1; higher = weaker reporter binding; conditions: input ligand: microRNA oligo, concentration not stated
METRIC: apparent KD of MS2 coat protein
Answer format: value, then unit.

// solved cases for apparent KD of MS2 coat protein follow
GGAAAGAGGUCAGGAUAUGAAUGUUUGGGACAUGAGGAUCACCCAUGUAAUAGAAGAAAUCUACAUUAGAAGGGACAAGGAAGG [AK SSNG2-V2-6] (Eterna round: R96, puzzle: Same State NG 2) :: 0.0545 µM
GUGGCCCAGGCACAGGAUAUGUUUCUCGUAACAUGAGGAUCACCCAUGUGCCUAUGAGAUUGUUUGCAGAAGGGUGCACGCCACG [JL Atiinbe mod 03] (Eterna round: R96, puzzle: Same State 2) :: 0.146 µM
GUGAAGAAUUAAGGAUAUUGAAUACAUAUGUUUAACAUGAGGAUCACCCAUGUGGGUUGCGGUAUCGAGAAGGUAAAUUACUGG [salish99_SSNG2_r04_032] (Eterna round: R96, puzzle: Same State NG 2) :: 0.0817 µM
UGGCUCAGACUAGGAUAUGAUCAUGGCGCUUCGGCGCAUACAUGAGGAUCACCCAUGUAAAGUGAUCAGAAGGAGUCUGAGCCA [SSNG2/7-C2] (Eterna round: R96, puzzle: Same State NG 2) :: 0.0119 µM
CCGGUUUAUGGAGGAUAUGGAGCCUUAUUGGCUCCAGAAGGUCAAUAACAUGAGGAUCACCCAUGUCCGGCGGUCAAUAGACCG [Eli NG1ss - 69] (Eterna round: R96, puzzle: Same State NG 1) :: 0.146 µM
UAAAGAUAGCGAGGAUAUCGCGAGGAUCACCCGUGAGAAGGCGCAGAGCCGAGGAUCACCCGGCUGAUCCUGAGGAGGAGGUCA (Eterna round: R96, puzzle: Same State NG 1) :: 0.197 µM
GGCGUAUAAACAUGAGGAUCACCCAUGUAGCGGAGACGCAAUGAGGAUAUCGAUGGGUUUCCCGUCGAGAAGGCGUGGGUCGCC [JL SSNG3 3.94] (Eterna round: R96, puzzle: Same State NG 3) :: 0.0206 µM
CCAGCAUCACGAGGAUAUGGAGGUUCCCGAAAGACAUGAGGAUCACCCAUGUAUGUACGCCGCCUUCAGAAGGUGUAUAAGCGA [Eternabot solution 31] (Eterna round: R96, puzzle: Same State NG 2) :: 0.0382 µM

Request the reported apparent KD of MS2 coat protein associated with UUGUUUAACGUAGGAUAUCGACCUACAUGAGGAUCACCCAUGUCUUUGUAUAGUUUUUUUUGUUACGAGAAGGACGUUUUGUAU [JR_SSNG2_Sub068] (Eterna round: R96, puzzle: Same State NG 2) 0.14 µM
